# System: MALME-3M melanoma
# protocol.details: NCI tumour cell line growth inhibition, 48 h
experimental.readout: TGI

{"compound": "O=C1C(N2CC2)=C(N2CC2)C(=O)C(N2CC2)=C1N1CC1", "experimental.value": "1.31 µM"}
{"compound": "Cc1ccc(N(C(=O)Nc2ccccc2)C2=NCC(C)S2)cc1C (stereo not drawn)", "experimental.value": "40.7 µM"}
{"compound": "O=C(c1cccs1)N(C(=S)OC12CC3CC(CC(C3)C1)C2)c1ccccc1", "experimental.value": "> 100 µM"}
{"compound": "COc1cc(CO)c(CC(=O)NCCCc2ccccc2)cc1OC", "experimental.value": "> 100 µM"}
{"compound": "Cc1cccc(N(C(=O)Nc2ccc(Cl)c(Cl)c2)C2=NCC(C)S2)c1 (stereo not drawn)", "experimental.value": "> 100 µM"}
{"compound": "O=C(Nc1ccncc1)C(=O)c1cn(Cc2ccc(Cl)cc2)c2ccccc12", "experimental.value": "> 100 µM"}
{"compound": "N#C/C(c1nc2ccccc2[nH]1)=c1\\s/c(=C/c2ccc(Cl)cc2)c(=O)n1-c1ccccc1", "experimental.value": "> 100 µM"}
{"compound": "CC(C)CCCC(C)[C@H]1CCC2[C@@H]3CCC4Nc5nocc5C[C@]4(C)C3CC[C@@]21C (stereo partly drawn)", "experimental.value": "40.2 µM"}
{"compound": "CC1CC2OC(=O)C(C)C2CC2(C)C(OC3OC(CO)C(O)C(O)C3O)OCCC12 (stereo not drawn)", "experimental.value": "> 100 µM"}
{"compound": "CCCCCCCCC/C=C/C=C/C(=O)NCC(=O)NC1C(O)C(O)C(Nc2ncnc3nc[nH]c23)OC1C(O)CO (stereo not drawn)", "experimental.value": "0.381 µM"}
{"compound": "CN1c2ccccc2N(C(=O)c2ccc(Cl)cc2)C(CC(=O)O)c2cccn21 (stereo not drawn)", "experimental.value": "> 100 µM"}
{"compound": "N#Cc1c(-c2ccc([N+](=O)[O-])cc2)c(C#N)c(=O)n(NS(=O)(=O)c2ccccc2)c1-c1ccccc1", "experimental.value": "> 100 µM"}
{"compound": "O=C(Nc1cccc(-n2cc(-c3ccncc3)c(-c3cc(O)cc(Cl)c3)n2)c1)Nc1ccc(Cl)c(C(F)(F)F)c1", "experimental.value": "6.25 µM"}
{"compound": "COc1cc2c3c(n(CCCCN)c(=O)c2cc1OC)-c1cc2c(cc1C3=O)OCO2", "experimental.value": "11.2 µM"}
{"compound": "Brc1cc(CCOC2CCCCO2)c(-c2sccc2CCOC2CCCCO2)s1 (stereo not drawn)", "experimental.value": "87.7 µM"}
{"compound": "CCOC(=O)c1nc2ccccc2nc1NCc1cc(OC)c(OC)c(OC)c1", "experimental.value": "> 100 µM"}
{"compound": "O=C(OCN1C(=O)C2C3C=CC(C2C1=O)C1C2C(=O)N(COC(=O)C4CCCN4)C(=O)C2C31)C1CCCN1 (stereo not drawn)", "experimental.value": "> 100 µM"}
{"compound": "CC(=O)C1=C(C)N(c2ccc(C)cc2)C2(O)C=CC(=O)C3C(=O)N(c4ccccc4)C(=O)C132 (stereo not drawn)", "experimental.value": "46.6 µM"}
{"compound": "CC1=CC(=O)c2ccccc2C1=O", "experimental.value": "10.9 µM"}
{"compound": "CC(=O)Oc1ccc(-c2cc3ccccc3oc2=O)cc1", "experimental.value": "> 100 µM"}
{"compound": "CC(=O)OCC1OC(c2nc3ccccc3s2)=CC(OC(C)=O)C1OC(C)=O (stereo not drawn)", "experimental.value": "> 100 µM"}
{"compound": "O=C(CCCN1CCC2(CC1)CC(=O)N(N1CCCCCC1)C2=O)c1ccccc1", "experimental.value": "> 100 µM"}
{"compound": "CN[C@H](C#Cc1c(F)ccc2c1/C(=C/c1[nH]ccc1OC)C(=O)N2)CO", "experimental.value": "5.06 µM"}
{"compound": "O=C(CC(=O)C1=CNc2ccccc2S1)C(=O)Nc1ccc(Cl)cc1", "experimental.value": "> 50 µM"}
{"compound": "CC(=O)OCC1OC(OC2CC3C(C)(C)C(OC(C)=O)CC[C@]3(C)C3CCC45CC4(CCC5[C@@H](C)C[C@H](O)C(O)C(C)(C)O)[C@]23C)C(O)C(O)C1O (stereo partly drawn)", "experimental.value": "> 10 µM"}
{"compound": "Cn1c2ccc3cc2c(=S)c2cc(ccc21)OCCOCCOCCOCCOCCO3", "experimental.value": "> 10 µM"}
{"compound": "COC(=O)[C@@]12OC[C@]34[C@H]([C@@H](O)[C@@H]1O)[C@@]1(C)[C@H](O)C(=O)C=C(C)[C@@H]1C[C@H]3OC(=O)C(OC(C)=O)[C@@H]24 (stereo partly drawn)", "experimental.value": "0.0466 µM"}
{"compound": "COc1ccc(N=Cc2ccc(N(CCC#N)S(=O)(=O)c3ccccc3)cc2)cc1", "experimental.value": "> 100 µM"}
